- System: MEK1/2
- assay.notes: Western blot of MEK1/2 protein levels in SK-MEL-28 cells
- reported.conditions: SK-MEL-28 cells, 0.1 μM or 0.3 μM, harvested at indicated time points
test.readout: MEK1 and MEK2 protein levels, time-dependent

compound	experimental.value
O=C1CCC(N2C(=O)c3ccc(NCCOCCOCCOCCOCCOCCNCCCONC(=O)c4ccc(F)c(F)c4Nc4ccc(I)cc4F)cc3C2=O)C(=O)N1 (stereo not shown) [CPD-051]	degrade
Cc1ncsc1-c1ccc([C@H](C)NC(=O)[C@@H]2C[C@@H](O)CN2C(=O)[C@@H](NC(=O)CCCCCCCCCCN(C)CCCONC(=O)c2ccc(F)c(F)c2Nc2ccc(I)cc2F)C(C)(C)C)cc1 [CPD-037]	degrade
Cc1ncsc1-c1ccc([C@H](C)NC(=O)[C@@H]2C[C@@H](O)CN2C(=O)[C@@H](NC(=O)CCCCCCCCCCCNCCCCONC(=O)c2ccc(F)c(F)c2Nc2ccc(I)cc2F)C(C)(C)C)cc1 [CPD-038]	degrade

---

- System: MEK1/2
- assay.notes: Western blot of MEK1/2 protein levels in HT-29 cells
- Format: cell-based
- reported.conditions: HT-29 cells, 0.1 μM or 0.3 μM, harvested at indicated time points
test.readout: MEK1 and MEK2 protein levels, time-dependent

compound	experimental.value
Cc1ncsc1-c1ccc([C@H](C)NC(=O)[C@@H]2C[C@@H](O)CN2C(=O)[C@@H](NC(=O)CCCCCCCCCCN(C)CCCONC(=O)c2ccc(F)c(F)c2Nc2ccc(I)cc2F)C(C)(C)C)cc1 [CPD-037]	degrade
Cc1ncsc1-c1ccc([C@H](C)NC(=O)[C@@H]2C[C@@H](O)CN2C(=O)[C@@H](NC(=O)CCCCCCCCCCCNCCCCONC(=O)c2ccc(F)c(F)c2Nc2ccc(I)cc2F)C(C)(C)C)cc1 [CPD-038]	degrade
O=C1CCC(N2C(=O)c3ccc(NCCOCCOCCOCCOCCOCCNCCCONC(=O)c4ccc(F)c(F)c4Nc4ccc(I)cc4F)cc3C2=O)C(=O)N1 (stereo not shown) [CPD-051]	degrade

Data credit: patent US12103924B2
